# experimental-target: Potassium channel subfamily K member 3 (Homo sapiens) (UniProt O14649)
# Sequence (O14649 whole entry, looked up): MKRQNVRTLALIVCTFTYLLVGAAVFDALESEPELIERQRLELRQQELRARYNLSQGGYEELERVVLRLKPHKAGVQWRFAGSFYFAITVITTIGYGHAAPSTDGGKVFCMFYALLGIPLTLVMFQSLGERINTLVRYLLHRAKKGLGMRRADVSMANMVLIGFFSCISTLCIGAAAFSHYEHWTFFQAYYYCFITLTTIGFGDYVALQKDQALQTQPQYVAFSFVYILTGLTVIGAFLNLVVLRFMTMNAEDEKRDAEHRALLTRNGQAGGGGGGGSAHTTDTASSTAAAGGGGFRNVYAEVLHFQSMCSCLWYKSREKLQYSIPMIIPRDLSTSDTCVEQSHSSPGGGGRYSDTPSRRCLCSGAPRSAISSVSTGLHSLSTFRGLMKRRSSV
# method: human KCNK3 channel inhibitors, primary screen, CHO cells, FluxOR thallium flux, B-score (AID 602410);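 for B-score: more negative B-score means stronger inhibition of thallium flux through KCNK3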
# cond: FluxOR fluorescence, at 10 µM
The whole screen tested about 340,000 compounds, of which about 2,800 (0.82%) were called active.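 Rule for the calls: active = B-score under library mean minus 4 SD, starting fluorescence ratio at most library mean plus 5 SD; inactive = the rest.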 The list comes from a sample in which actives are over-represented; it also holds close analogues and randomly drawn compounds.
Allowed answers: active, inactive

Previously resolved entries follow.
* COC(=O)CNS(=O)(=O)c1ccc(Cc2ccc(S(=O)(=O)NCC(=O)OC)cc2)cc1 | inactive
* Cc1nn(CC(=O)Nc2ccc(N(C)C)cc2)c(C)c1[N+](=O)[O-] | inactive
* COC(=O)c1ccc(CN2C(=O)NC(c3ccccc3)(c3ccccc3)C2=O)o1 | inactive
* COc1ccc(S(=O)(=O)c2c[nH]c(=S)[nH]c2=O)cc1Cl | inactive
* CCCCc1nc2ccccc2c(NC(=O)CN2CCN(C)CC2)c1CCC | inactive

Look up the recorded call for CCCC(C)c1nnc(NC(=O)C2CC(=O)N(c3ccc(OCC)cc3)C2)s1 (stereo not given) in this test. inactive

Look up the recorded call for `COc1ccccc1N1CCN(/N=C\C(Br)=C\c2ccccc2)CC1` in this test. active
